Please respond with reported self-cleavage for every item in the list.
B1: CPEB3 Ribozyme (parent)
chain: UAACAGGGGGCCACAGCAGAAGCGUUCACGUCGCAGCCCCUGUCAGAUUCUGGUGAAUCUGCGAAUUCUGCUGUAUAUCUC

# Variants of: B1
# assay: self-cleavage, relative activity (ratio to wild type); higher = more cleavage; in vitro, sequencing
One number for each entry.

Please review the following examples before continuing.
>>> print(df.to_string())
   mutation_id  obs_value
0    A15C G73A       1.26
1    A35C U76C       0.96
2    A45U U66C       0.27
3    C23A A45C       0.34
4    U51A G55U       1.08

# evaluate next
INPUT: # get_value(readout='self-cleavage', item= A45C U74G )
OUTPUT: 0.68
